Read-out record for COX-2 (Homo sapiens): IC50
The answer is to be given in µM; state only the numeric part.

Output IC50 of O=c1c(O)c(-c2ccc(O)cc2)oc2cc(O)cc(O)c12 [Kaempferol]
236

Output IC50 of O=C(O[C@@H]1Cc2c(O)cc(O)cc2O[C@@H]1c1cc(O)c(O)c(O)c1)c1cc(O)c(O)c(O)c1 [EGCG]
28.6

Output IC50 of O=c1c(-c2ccc(O)cc2)coc2cc(O)cc(O)c12 [Genistein]
256

---

Read-out record for COX-1 (Ovis aries): pIC50
Note on units: pIC50 is unitless, being -log10 of a concentration expressed in mol/L.

Field: example entries. Status: answers known.
| compound | pIC50 |
| --- | --- |
| COc1cc(/C=C/C(=O)CC(=O)/C=C/c2ccc(O)c(OC)c2)ccc1O [Curcumin] | 3.48 |
| O=c1c(-c2ccc(O)cc2)coc2cc(O)cc(O)c12 [Genistein] | 5.00 |
| O=c1cc(-c2ccc(O)cc2)oc2cc(O)cc(O)c12 [Apigenin] | 4.03 |
| Oc1ccc(/C=C/c2cc(O)cc(O)c2)cc1 [Resveratrol] | 5.47 |

Report its pIC50 with COX-1 (Ovis aries) as the test system: O=C(O[C@@H]1Cc2c(O)cc(O)cc2O[C@@H]1c1cc(O)c(O)c(O)c1)c1cc(O)c(O)c(O)c1 [EGCG]
Sequence (P05979 25-600): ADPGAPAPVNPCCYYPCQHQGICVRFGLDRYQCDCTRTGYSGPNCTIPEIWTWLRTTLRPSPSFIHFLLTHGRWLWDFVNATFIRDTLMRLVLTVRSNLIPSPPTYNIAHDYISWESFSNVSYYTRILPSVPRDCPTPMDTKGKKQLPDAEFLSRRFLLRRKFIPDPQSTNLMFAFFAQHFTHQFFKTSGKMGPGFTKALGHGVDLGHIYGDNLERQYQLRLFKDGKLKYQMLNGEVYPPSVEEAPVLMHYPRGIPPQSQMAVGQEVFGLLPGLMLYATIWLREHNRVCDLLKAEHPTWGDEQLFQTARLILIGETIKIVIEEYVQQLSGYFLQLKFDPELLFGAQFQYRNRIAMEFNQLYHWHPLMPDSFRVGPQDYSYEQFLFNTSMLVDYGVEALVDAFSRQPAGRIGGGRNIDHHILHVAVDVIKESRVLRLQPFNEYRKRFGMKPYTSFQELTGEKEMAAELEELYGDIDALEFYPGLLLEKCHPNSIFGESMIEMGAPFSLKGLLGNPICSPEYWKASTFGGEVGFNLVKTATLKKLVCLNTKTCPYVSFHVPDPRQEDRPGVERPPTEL
4.75

Report its pIC50 with COX-1 (Ovis aries) as the test system: O=c1c(O)c(-c2ccc(O)cc2)oc2cc(O)cc(O)c12 [Kaempferol]
3.96
